STUDY TARGET: KRAS G12D (Homo sapiens, UniProt P01116, G12D)
Construct: AsPc-1-KRAS (G12D)-HiBit-KI cell (Pharmaron); host or cells: AsPc-1-KRAS (G12D)-HiBit-KI cells (HiBiT knock-in at the endogenous KRAS locus)
Sequence (P01116 1-188 isoform P01116-2 G12D): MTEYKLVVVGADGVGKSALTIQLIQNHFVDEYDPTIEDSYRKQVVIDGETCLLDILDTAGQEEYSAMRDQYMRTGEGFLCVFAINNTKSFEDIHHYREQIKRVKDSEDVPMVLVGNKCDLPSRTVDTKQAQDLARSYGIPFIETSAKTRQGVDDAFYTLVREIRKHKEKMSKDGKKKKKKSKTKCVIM
ASSAY PROCEDURE: KRAS G12D HiBit assay
Assay type: cell-based
RUN CONDITIONS: AsPc-1-KRAS (G12D)-HiBit-KI cell, compound treatment for 24 hours; class symbols
Documented Dmax across a set of molecules

**Q:** Recorded Dmax of CCc1c(F)ccc2cccc(-c3ncc4c(N5CCC[C@@](C)(O)C5)nc(OC[C@@]56CCCN5[C@H](COC(=O)NCCOCCOCCOCCOc5ccc7c(c5)n(C)c(=O)n7C5CCC(=O)NC5=O)CC6)nc4c3F)c12 (some centres unmarked) [Compound 105] , please.
**A:** 15 to 50%

Then there is this molecule:
**Q:** Return reported Dmax; argument: CCc1c(F)ccc2cc(O)cc(-c3ncc4c(N5CCC[C@@](C)(O)C5)nc(OC[C@@]56CCCN5[C@H](COC(=O)N5CCC(CN7CCC(c8cc9c(cc8F)n(C8CCC(=O)NC8=O)c(=O)n9C)CC7)CC5)CC6)nc4c3F)c12 (some centres unmarked) [Compound 101]
**A:** > 50%

* * *

STUDY TARGET: KRAS G12V (Homo sapiens, UniProt P01116, G12V)
Construct: SW620-KRAS (G12V)-HiBit-KI cell (Pharmaron); host or cells: SW620-KRAS (G12V)-HiBit-KI cells (HiBiT knock-in at the endogenous KRAS locus)
Sequence (P01116 1-188 isoform P01116-2 G12V): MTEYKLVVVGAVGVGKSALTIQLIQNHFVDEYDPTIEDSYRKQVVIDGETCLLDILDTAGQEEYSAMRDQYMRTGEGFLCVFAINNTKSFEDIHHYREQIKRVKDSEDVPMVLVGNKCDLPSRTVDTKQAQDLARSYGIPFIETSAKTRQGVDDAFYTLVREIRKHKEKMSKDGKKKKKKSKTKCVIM
ASSAY PROCEDURE: KRAS G12V HiBit assay
Format: cell-based
RUN CONDITIONS: SW620-KRAS (G12V)-HiBit-KI cells, compound treatment for 24 hours, class symbols
Procedure: Day 1. […] Rinsed cultivated cells in T-75 flasks with 5 mL PBS (Solarbio, P1020-500). […] Inactivated trypsin by adding excessive serum containing medium. Harvested the cells from flask into cell culture medium and counted the cell number. Day 2. Test compounds were dissolved at 0.3 mM in DMSO (Solarbio, D8371) as stock solution. […] The degradation activity was calculated using the following formula: […]
Listed molecules paired with reported DC50

**Q:** Which DC50 is reported for this molecule? CCc1c(F)ccc2cc(O)cc(-c3ncc4c(N5CCC[C@@](C)(O)C5)nc(OC[C@@]56CCCN5[C@@H](COC(=O)N5CCC(CCCOc7ccc8c(c7)n(C)c(=O)n8C7CCC(=O)NC7=O)CC5)CC6)nc4c3F)c12 (stereo partly drawn)
**A:** > 100 nM

**Q:** # lookup: DC50 of CCc1c(F)ccc2cccc(-c3ncc4c(N5CCC[C@@](C)(O)C5)nc(OC[C@@]56CCCN5[C@H](COC(=O)N5CCC(CN7CCC(c8ccc9c(c8)n(C)c(=O)n9C8CCC(=O)NC8=O)CC7)CC5)CC6)nc4c3F)c12 (stereo partly drawn)
**A:** > 100 nM

**Q:** # query: DC50 of entry C#Cc1c(F)ccc2cccc(-c3ncc4c(N5CCC[C@@](C)(O)C5)nc(OCC5(CN6CC7(C6)CN(c6ccc8c(c6)n(C)c(=O)n8C6CCC(=O)NC6=O)C7)CC5)nc4c3F)c12 (stereo partly drawn)
**A:** > 100 nM

**Q:** Quick one: DC50 for C#Cc1c(F)ccc2cc(O)cc(-c3ncc4c(N5CCC[C@@](C)(O)C5)nc(OC[C@@]56CCCN5[C@H](COC(=O)N5CC7(CC(CN8CCC(c9ccc%10c(c9)n(C)c(=O)n%10C9CCC(=O)NC9=O)CC8)C7)C5)CC6)nc4c3F)c12 (stereo partly drawn) ?
**A:** < 10 nM

Others:
**Q:** Looking for the measured DC50 of CCc1c(F)ccc2cc(O)cc(-c3ncc4c(N5CCC[C@@](C)(O)C5)nc(OC[C@@]56CCCN5[C@H](COC(=O)N5CCC7(CC5)CC(CN5CCC(c8ccc9c(c8)n(C)c(=O)n9C8CCC(=O)NC8=O)CC5)C7)CC6)nc4c3F)c12 (stereo partly drawn) , can you help?
**A:** < 10 nM

**Q:** # lookup: DC50 of C[C@H]1CN(CCOCCOc2cccc3c2n(C)c(=O)n3C2CCC(=O)NC2=O)CCCN1c1nccc(-c2noc([C@@]3(C)CCCc4sc(N)c(C#N)c43)n2)n1 (stereo partly drawn)
**A:** > 100 nM

**Q:** For the molecule CCc1c(F)ccc2cc(O)cc(-c3ncc4c(N5CCC[C@@](C)(O)C5)nc(OC[C@@]56CCCN5[C@H](COC(=O)N5CCC(CN7CCC(c8cccc9c8n(C)c(=O)n9C8CCC(=O)NC8=O)CC7)CC5)CC6)nc4c3F)c12 (stereo partly drawn) , what DC50 is on record?
**A:** < 10 nM

**Q:** Record request: DC50 value, item C#Cc1c(F)ccc2cc(O)cc(-c3ncc4c(N5CCC[C@@](C)(O)C5)nc(OCC5(CN6CCC(N7CCC(c8ccc9c(C%10CCC(=O)NC%10=O)nn(C)c9c8)CC7)CC6)CC5)nc4c3F)c12 (stereo partly drawn)
**A:** < 10 nM

**Q:** Quick one: DC50 of Cn1c(=O)n(C2CCC(=O)NC2=O)c2ccc(C3CCN(CC4CCN(C(=O)OC[C@@H]5CC[C@]6(COc7nc(N8CCC[C@@](C)(O)C8)c8cnc(-c9cc(O)cc%10ccc(F)c(F)c9%10)c(F)c8n7)CCCN56)CC4)CC3)cc21 (stereo partly drawn) ?
**A:** < 10 nM

* * *

List of DC50 values.
STUDY TARGET: KRAS G12V (Homo sapiens, UniProt P01116, G12V)
Construct: SW620-KRAS (G12V)-HiBit-KI cell (Pharmaron); host or cells: SW620-KRAS (G12V)-HiBit-KI cells (HiBiT knock-in at the endogenous KRAS locus)
ASSAY PROCEDURE: KRAS G12V HiBit assay
Format: cell-based
RUN CONDITIONS: SW620-KRAS (G12V)-HiBit-KI cells, compound treatment for 24 hours, class symbols

Worked examples, 3 compounds total:
**Q:** Entry CCc1c(F)ccc2cc(O)cc(-c3ncc4c(N5CCC[C@@](C)(O)C5)nc(OC[C@@]56CCCN5[C@H](COC(=O)Nc5ccc(CN7CCC(c8ccc9c(c8)n(C)c(=O)n9C8CCC(=O)NC8=O)CC7)cc5)CC6)nc4c3F)c12 (stereo partly shown) [Compound 450] , system KRAS G12V (Homo sapiens, UniProt P01116, G12V): what DC50 was measured?
**A:** < 10 nM

**Q:** Value wanted: DC50 (KRAS G12V (Homo sapiens, UniProt P01116, G12V)) of entry CCc1c(F)ccc2cc(O)cc(-c3ccc4c(N5CCC[C@@](C)(O)C5)nc(OC[C@@]56CCCN5[C@@H](COC(=O)N5CCC(CN7CCC(c8ccc9c(c8)n(C)c(=O)n9C8CCC(=O)NC8=O)CC7)CC5)CC6)nc4c3F)c12 (stereo partly shown) [Compound 319]
**A:** > 100 nM

**Q:** Please state recorded DC50 (tested on KRAS G12V (Homo sapiens, UniProt P01116, G12V)) of CCc1c(F)ccc2cc(O)cc(-c3ncc4c(N5CCC[C@@](C)(O)C5)nc(OC[C@@]56CCCN5[C@H](COC(=O)N5CCC(OCCCc7cccc8c7n(C)c(=O)n8C7CCC(=O)NC7=O)CC5)CC6)nc4c3F)c12 (stereo partly shown) [Compound 2]
**A:** < 10 nM

// below: DC50 requested for another compound
**Q:** Param readout= DC50; system= KRAS G12V (Homo sapiens, UniProt P01116, G12V); entry= CCc1c(F)ccc2cc(O)cc(-c3ccc4c(N5CCC[C@@](C)(O)C5)nc(OC[C@]56CCCN5[C@H](COC(=O)N5CCC(CN7CCC(c8ccc9c(c8)n(C)c(=O)n9C8CCC(=O)NC8=O)CC7)CC5)CC6)nc4c3F)c12 (stereo partly shown) [Compound 318] ; returns value.
**A:** > 100 nM

* * *

STUDY TARGET: KRAS G12V (Homo sapiens, UniProt P01116, G12V)
Construct: SW620-KRAS (G12V)-HiBit-KI cell (Pharmaron); host or cells: SW620-KRAS (G12V)-HiBit-KI cells (HiBiT knock-in at the endogenous KRAS locus)
ASSAY PROCEDURE: KRAS G12V HiBit assay
Type: cell-based
RUN CONDITIONS: SW620-KRAS (G12V)-HiBit-KI cells, compound treatment for 24 hours, class symbols
METRIC: DC50

**Q:** Entry CCc1c(F)ccc2cc(O)cc(-c3ncc4c(N5CCN6CCCC6C5)nc(OC[C@@]56CCCN5[C@H](COC(=O)N5CCC7(CC5)CC(N5CCC(c8ccc9c(c8)n(C)c(=O)n9C8CCC(=O)NC8=O)CC5)C7)CC6)nc4c3F)c12 (some centres unmarked) has what DC50?
**A:** > 100 nM

**Q:** Please give the measured DC50 for this compound: CCc1c(F)ccc2cc(O)cc(-c3ncc4c(N5CCC[C@@](C)(O)C5)nc(OC[C@@]56CCCN5[C@@H](COC(=O)N5CCC(CCOc7ccc8c(c7)n(C)c(=O)n8C7CCC(=O)NC7=O)CC5)CC6)nc4c3F)c12 (some centres unmarked)
**A:** > 100 nM

More entries:
**Q:** Give the measured DC50 of CCc1c(F)ccc2cc(O)cc(-c3cc4nc(OC[C@@]56CCCN5[C@H](COC(=O)N5CCC(CN7CCC(c8ccc9c(c8)n(C)c(=O)n9C8CCC(=O)NC8=O)CC7)CC5)CC6)nc(N5CCC[C@@](C)(O)C5)c4cn3)c12 (some centres unmarked) .
**A:** < 10 nM

**Q:** Given the compound CCc1c(F)ccc2cc(O)cc(-c3ncc4c(N5CCC[C@@](C)(O)C5)nc(OC[C@@]56CCCN5[C@H](CN5CCC(CN7CCC(Cc8ccc9c(c8)n(C)c(=O)n9C8CCC(=O)NC8=O)CC7)CC5)CC6)nc4c3F)c12 (some centres unmarked) , what is its reported DC50?
**A:** 10 to 100 nM

**Q:** Recorded DC50 of C#Cc1c(F)ccc2cc(O)cc(-c3ncc4c(N5CCC[C@@](C)(O)C5)nc(OC[C@@]56CCCN5[C@H](COC(=O)N5CCC7(CC5)CCN7C5CCN(c7ccc8c(c7)n(C)c(=O)n8C7CCC(=O)NC7=O)CC5)CC6)nc4c3F)c12 (some centres unmarked) , please.
**A:** > 100 nM

**Q:** Query: DC50; subject: CCc1c(F)ccc2cc(O)cc(-c3ncc4c(N5CCC[C@@](C)(O)C5)nc(OC[C@@]56CCCN5[C@H](COC(=O)N5CCC(CN7CCC(c8ccc9c(c8)n(C)c(=O)n9C8CCC(=O)NC8=O)CC7)CC5)CC6)nc4c3F)c12 (some centres unmarked)
**A:** < 10 nM

**Q:** Sample CCc1c(F)ccc2cc(O)cc(-c3ncc4c(N5CCC[C@@](C)(O)C5)nc(OC[C@]56CCCN5[C@H](CCCN5CCC(c7ccc8c(c7)n(C)c(=O)n8C7CCC(=O)NC7=O)CC5)CC6)nc4c3F)c12 (some centres unmarked) — what was its DC50?
**A:** 10 to 100 nM

**Q:** Param item = CCc1c(F)ccc2cc(O)cc(-c3ncc4c(N5CC[C@H](O)C5)nc(OC[C@@]56CCCN5[C@H](COC(=O)N5CCC7(CC5)CC(N5CCC(c8ccc9c(c8)n(C)c(=O)n9C8CCC(=O)NC8=O)CC5)C7)CC6)nc4c3F)c12 (some centres unmarked) ; retrieve measured DC50.
**A:** 10 to 100 nM
